system: Plasmodium falciparum; experiment: Screen against P. falciparum Asexual Blood Stage (ABS), at 5uM; assay type: functional, Dd2; conditions: tested at 5 uM
About 2,100 (3.2%) of roughly 65,000 compounds showed an effect of 50% or more. The median lay at about -52%. This is one part of a sample in which strong results are shown more often than they occur.
Note to self: use Yes only for INHIBITION readings below -50%; a reading exactly at -50% still gets No.

INSERT INTO results (molecule, assayed_system, class_assignment) VALUES
  ('CNc1nc2cn(C3CCCC3)c(=O)c-2c[nH]1', 'Plasmodium falciparum', 'No'),
  ('c1cc(-c2ccc3c(c2)CCC32CCN(c3nncs3)CC2)co1', 'Plasmodium falciparum', 'No'),
  ('Nc1nc2cn(C3CCCC3)c(=O)c-2c[nH]1', 'Plasmodium falciparum', 'No');

Decide: INHIBITION of Nc1cc(-c2c[nH]nc2C2CCCCN2C(=O)C2CCCC2)ccn1 (stereo unspecified) strictly below -50%? No

Decide: INHIBITION of CC1CCC(n2cc3nc(N)[nH]cc-3c2=O)CC1 (stereo unspecified) strictly below -50%? Yes

Decide: INHIBITION of "O=C(CCO)N1CCC2(CCc3ccc(-c4ccoc4)cc32)CC1" strictly below -50%? Yes

###

tested on: Plasmodium falciparum; assay: Screen against P. falciparum Asexual Blood Stage (ABS), at 5uM; format: functional, Dd2; details: tested at 5 uM
Among all 65,000 compounds or so, about 2,100 (3.2%) showed an effect of 50% or more. The median lay at about -52%. The sample holds strong results, similar compounds and a random draw of the others, so the mix is not that of the screen.
The entries below come with measured INHIBITION values attached.
// note: answer is a bare numeric in %

Worked set:
INSERT INTO results (molecule, endpoint, unit_annotation, reading) VALUES
  ('CC(C)c1nc(N2CCC(N3CCCC(O)C3)CC2)c2cnn(C)c2n1 (centres undefined)', 'INHIBITION', '%', -33.8),
  ('CC(C)(CN1CCC(Cc2ccc(C(=O)O)cc2)C1)N1CCOCC1 (centres undefined)', 'INHIBITION', '%', -29.2),
  ('O=C(CCc1nccs1)N1CCN(c2ccccn2)CC1', 'INHIBITION', '%', -127),
  ('COCCNC(=O)C1(Cc2ccccc2-c2ccncc2)CCOCC1', 'INHIBITION', '%', -10.1),
  ('OC(CNC1CCOCC1)c1ccc(Cl)c(F)c1 (centres undefined)', 'INHIBITION', '%', 50.9),
  ('O=C(c1ccco1)N1CC[C@@H]2O[C@@H](COCCN3CCCC3)CC[C@@H]21', 'INHIBITION', '%', -86.1);

Give reported INHIBITION value for "CC(C)CC(=O)N(C)Cc1nc(C(F)(F)F)cs1" -49.5

Give reported INHIBITION value for CC(C)CNC(=O)C1(Cc2ccccc2-c2ccccc2)CCNC1 (centres undefined) 52

Give reported INHIBITION value for CN(C)C(=O)c1cn[nH]c1C1(C)CCCN(Cc2ccccn2)C1 (centres undefined) -73.2

Give reported INHIBITION value for "Cc1csc(N2CCN(C(=O)C3(C#N)CCCC3)CC2)n1" -111

Give reported INHIBITION value for Cc1cc(C)c2nc(C3CC3)cc(C(=O)N3CCCC3C(N)=O)c2c1 (centres undefined) -98.6

Give reported INHIBITION value for "CCO[C@H]1C[C@@H](O)C12CCN(C1Cc3ccccc3C1)CC2" -26.8

###

system: Plasmodium falciparum; assay: Screen against P. falciparum Asexual Blood Stage (ABS), at 5uM; type: functional, Dd2; conditions: tested at 5 uM
In all, about 65,000 compounds went through this assay and about 2,100 (3.2%) showed an effect of 50% or more. The median lay at about -52%. The entries come from a sample that favours strong results as a whole.
ENDPOINT: INHIBITION (%)
// note: answer is a bare numeric in %

Worked set:
INSERT INTO results (compound, assayed_system, reading) VALUES
  ('Cc1cc(C)c2nc(C)c(C(=O)N3CCC(CCN(C)C)CC3)cc2c1', 'Plasmodium falciparum', -87.5),
  ('CCC(CC)C(=O)Nc1ccc2oc(=O)n(CCN(C)C)c2c1', 'Plasmodium falciparum', 25.5),
  ('CC(C)c1nn(C)c(Cl)c1CNCc1cccnc1N(C)C', 'Plasmodium falciparum', -8.45),
  ('COC(=O)C(c1cc(F)ccc1F)N(C)C(=O)c1cnc(C)cn1 (stereo unspecified)', 'Plasmodium falciparum', -85.1),
  ('Cc1cccc(-c2nccnc2C2CCCN(C)C2)c1C (stereo unspecified)', 'Plasmodium falciparum', 2.65);

Consider the record given below.
Give reported INHIBITION value for Cc1ccc2c(c1)CN(C(=O)c1ccccc1F)C(CN(C)C)CO2 (stereo unspecified) 50.4

###

test system: Plasmodium falciparum; assay: Screen against P. falciparum Asexual Blood Stage (ABS), at 5uM; format: functional, Dd2; settings: tested at 5 uM
The whole screen tested about 65,000 compounds, of which about 2,100 (3.2%) showed an effect of 50% or more. The median lay at about -52%. Many of the other results were omitted from the sample, so strong results are more common in it than they were.
The entries below come with measured INHIBITION values attached.
// note: answer is a bare numeric in %

Give reported INHIBITION value for "CSc1nccc(N2CCC(NCCN3CCOCC3)CC2)n1" -47.4

Give reported INHIBITION value for "CC(C)(NCc1ccc(C#N)cc1)c1ccc2c(c1)OCO2" -0.993

Give reported INHIBITION value for Cc1cccc(C2(CNC(=O)C(C)S(C)(=O)=O)CCCC2)c1 (stereo unspecified) -66

Give reported INHIBITION value for "COc1ccc(CN2CCCn3cnc(COC(C)C)c3C2)cc1" -12.6

Give reported INHIBITION value for "CCc1nc(NCCc2c(C)nn(CC)c2C)c2cnn(C)c2n1" -95.2

Give reported INHIBITION value for "CC(C)(NCc1cccc(C(N)=O)c1)c1ccc2c(c1)OCO2" 19.8

###

tested on: Plasmodium falciparum; experiment: Screen against P. falciparum Asexual Blood Stage (ABS), at 5uM; assay type: functional, Dd2; details: tested at 5 uM
Out of some 65,000 compounds screened, about 2,100 (3.2%) showed an effect of 50% or more. The median lay at about -52%. The list comes from a sample in which strong results are over-represented; it also holds close analogues and randomly drawn compounds.
Note to self: use 1 only for INHIBITION readings below -30%; a reading exactly at -30% still gets -1.

Worked cases, answers included:
INSERT INTO assay_data (compound, class_assignment) VALUES
  ('CCCc1cc(C(=O)NC(COC)c2ccnn2C)no1 (stereo not drawn)', -1),
  ('OC1(CN2CCCC2)COCCN(c2cc(C(F)(F)F)ccn2)C1 (stereo not drawn)', 1),
  ('COCCNC(=O)c1ccc2c(=O)n3c(nc2c1)CCCC3', 1),
  ('Cc1cc(C)cc(N2CCN(C(=O)CCN3C[C@H]4CC[C@@H]3C4)CC2=O)c1', -1),
  ('COc1ccc(C2=Nn3c(CCN)nnc3-c3ccccc3C2)cc1', -1),
  ('OC1(CN2CCC(Oc3cccnc3)CC2)CNCCOC1 (stereo not drawn)', 1);

Decide: INHIBITION of "COC(=O)c1c(Cl)c(C)nc2onc(C)c12" strictly below -30%? 1

Decide: INHIBITION of "Cc1cnn(CCC(=O)N2CCN(C(=O)C(C)C)[C@@H]3CS(=O)(=O)C[C@@H]32)c1" strictly below -30%? 1

Decide: INHIBITION of Cc1nc(C)n(CC2CCCN2CC(=O)Nc2c(C)n[nH]c2C)n1 (stereo not drawn) strictly below -30%? -1

Decide: INHIBITION of CCC1CN(C)c2ccccc2CN1C(=O)Nc1cccc(F)c1 (stereo not drawn) strictly below -30%? 1

Decide: INHIBITION of "Cc1ccc(-c2cc(C(=O)NCCCc3csc(N)n3)[nH]n2)o1" strictly below -30%? -1

Decide: INHIBITION of Cc1nc(C)n(CC2CCCCN2CC(=O)Nc2c(C)n[nH]c2C)n1 (stereo not drawn) strictly below -30%? -1

Decide: INHIBITION of "Cc1ccc(-c2cc(C(=O)NCCCc3csc(N)n3)[nH]n2)s1" strictly below -30%? -1

Decide: INHIBITION of "Cc1ccc(N2CCN(C(=O)CN3C[C@H]4CC[C@@H]3C4)CC2=O)cc1" strictly below -30%? 1

###

The entries below come with measured INHIBITION values attached.
test system: Plasmodium falciparum; test: Screen against P. falciparum Asexual Blood Stage (ABS), at 5uM; type: functional, Dd2; settings: tested at 5 uM
Out of some 65,000 compounds screened, about 2,100 (3.2%) showed an effect of 50% or more. The median lay at about -52%. For the sample, strong results were picked, then their nearest neighbours and some compounds at random.
// note: answer is a bare numeric in %

Worked set:
INSERT INTO measurements (molecule, assayed_system, endpoint, reading) VALUES
  ('Cc1ncsc1C(=O)N1CCC(O)(Cn2c(C)cc3ccncc32)CC1', 'Plasmodium falciparum', 'INHIBITION', -64.6),
  ('COc1cc(N2CCCC3(CCN(c4cccnc4)C3=O)C2)ncn1 (stereo not drawn)', 'Plasmodium falciparum', 'INHIBITION', -14.1),
  ('COc1cccc2c1OCC(C(=O)NCc1ncc3c(n1)CCC3)C2 (stereo not drawn)', 'Plasmodium falciparum', 'INHIBITION', -33);

Consider the record given below.
Give reported INHIBITION value for CCn1cc(S(=O)(=O)N2CCC(C)Sc3ccccc32)cn1 (stereo not drawn) -0.433
